target: Cyclin-dependent kinase 19 (Homo sapiens)
Sequence (Q9BWU1 whole entry): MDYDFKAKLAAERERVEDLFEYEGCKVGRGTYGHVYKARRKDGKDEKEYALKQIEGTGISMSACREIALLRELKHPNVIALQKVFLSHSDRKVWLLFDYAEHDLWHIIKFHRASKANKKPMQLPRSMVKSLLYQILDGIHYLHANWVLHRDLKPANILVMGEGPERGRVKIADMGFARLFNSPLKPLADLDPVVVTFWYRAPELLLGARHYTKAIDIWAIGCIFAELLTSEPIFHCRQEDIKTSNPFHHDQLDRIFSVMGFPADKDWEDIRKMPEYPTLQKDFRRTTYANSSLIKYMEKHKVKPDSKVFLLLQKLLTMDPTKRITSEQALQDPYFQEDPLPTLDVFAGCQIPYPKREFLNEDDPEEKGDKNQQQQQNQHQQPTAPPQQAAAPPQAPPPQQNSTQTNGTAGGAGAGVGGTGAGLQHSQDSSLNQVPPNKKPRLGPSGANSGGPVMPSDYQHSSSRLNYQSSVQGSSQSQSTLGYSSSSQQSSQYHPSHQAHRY
pKd: −log10 of the molar value.
property_label: pKd

COCCNC(=O)c1ccc(Oc2sc(C(N)=O)c3c2-c2sncc2CC3)cn1	7.60

----------
molecular target: CDK8/Cyclin C (Homo sapiens); assay: Inhibition of kinase tracer-236 binding to GST-tagged CDK8/CyclinC (unknown origin) after 60 mins by TR-FRET assay; format: protein-complex assay
property_label: IC50 (nM)

CC(C)(O)CNC(=O)c1ccc(Oc2sc(C(N)=O)c3c2-c2sncc2CC3)cn1	2.4
CSc1sc(C(=O)Nc2ccccn2)c2c1-c1sncc1CC2	180
CSc1sc(C(=O)N(C)C)c2c1-c1sncc1CC2	68
COCCNC(=O)c1ccc(Oc2sc(C(N)=O)c3c2-c2sncc2CC3)cn1	0.46
NC(=O)c1sc(Oc2cccnc2)c2c1CCc1cnsc1-2	1.5

----------
Target: Mitogen-activated protein kinase kinase kinase 19 (Homo sapiens)
Sequence (Q56UN5 whole entry): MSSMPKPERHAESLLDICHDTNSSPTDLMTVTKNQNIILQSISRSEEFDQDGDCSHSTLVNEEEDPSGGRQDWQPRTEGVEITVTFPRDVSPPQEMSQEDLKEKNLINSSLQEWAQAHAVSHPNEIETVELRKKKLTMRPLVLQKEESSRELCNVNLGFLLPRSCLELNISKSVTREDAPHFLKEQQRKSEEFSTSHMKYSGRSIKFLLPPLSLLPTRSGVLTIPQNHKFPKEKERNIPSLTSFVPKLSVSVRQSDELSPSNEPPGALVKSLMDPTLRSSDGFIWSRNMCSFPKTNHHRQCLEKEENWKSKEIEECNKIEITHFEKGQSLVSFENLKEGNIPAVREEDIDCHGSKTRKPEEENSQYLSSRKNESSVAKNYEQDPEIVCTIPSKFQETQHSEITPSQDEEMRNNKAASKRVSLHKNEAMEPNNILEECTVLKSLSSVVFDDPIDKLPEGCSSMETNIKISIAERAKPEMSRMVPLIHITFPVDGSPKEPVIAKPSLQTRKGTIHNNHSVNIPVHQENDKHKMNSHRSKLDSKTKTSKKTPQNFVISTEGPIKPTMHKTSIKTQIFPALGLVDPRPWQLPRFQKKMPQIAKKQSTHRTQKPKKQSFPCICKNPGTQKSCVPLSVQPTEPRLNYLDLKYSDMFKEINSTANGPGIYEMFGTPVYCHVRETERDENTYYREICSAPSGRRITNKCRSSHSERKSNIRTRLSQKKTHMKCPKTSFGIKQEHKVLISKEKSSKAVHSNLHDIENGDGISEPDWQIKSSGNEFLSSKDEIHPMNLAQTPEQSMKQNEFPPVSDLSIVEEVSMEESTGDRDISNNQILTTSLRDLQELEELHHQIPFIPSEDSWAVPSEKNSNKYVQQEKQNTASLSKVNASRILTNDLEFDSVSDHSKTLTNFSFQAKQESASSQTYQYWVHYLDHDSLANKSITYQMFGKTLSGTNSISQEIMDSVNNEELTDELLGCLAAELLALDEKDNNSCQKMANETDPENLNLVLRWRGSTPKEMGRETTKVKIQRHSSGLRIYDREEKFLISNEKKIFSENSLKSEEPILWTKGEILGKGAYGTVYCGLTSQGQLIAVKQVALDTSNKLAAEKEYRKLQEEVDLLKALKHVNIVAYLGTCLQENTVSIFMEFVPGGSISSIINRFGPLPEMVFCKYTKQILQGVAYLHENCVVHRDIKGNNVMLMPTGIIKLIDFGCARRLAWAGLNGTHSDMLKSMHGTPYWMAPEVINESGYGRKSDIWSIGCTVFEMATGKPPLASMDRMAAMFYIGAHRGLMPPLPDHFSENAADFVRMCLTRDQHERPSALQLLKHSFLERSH
Assay: Binding affinity to partial length wild-type human YSK4 (T1019 to H1328 residues) expressed in bacterial expression system by kinome scan assay
pKd: −log10 of the molar value.
property_label: pKd

COCCNC(=O)c1ccc(Oc2sc(C(N)=O)c3c2-c2sncc2CC3)cn1	7.01

----------
experiment: Oral bioavailability in ICR mouse plasma at 1 mg/kg administered as cassette dose by LC-MS/MS analysis; format: ADME, organism-based
property_label: bioavailability (%)

COCCNC(=O)c1ccc(Oc2sc(C(N)=O)c3c2-c2sncc2CC3)cn1	98.5

----------
tested on: Mus musculus; test: AUC (0 to 24 hrs) in ICR mouse plasma at 0.1 mg/kg, iv administered as cassette dose by LC-MS/MS analysis; format: ADME, organism-based; parameters: dose 0.1 mg/kg, time < 24 hr, route intravenous; conditions: in vivo
property_label: AUC (ng·h/mL)

COCCNC(=O)c1ccc(Oc2sc(C(N)=O)c3c2-c2sncc2CC3)cn1	90.4

----------
experiment: Toxicity in C.B17/Icr scid/scid Jcl mouse mouse; settings: in vivo
property_label: MTD

COCCNC(=O)c1ccc(Oc2sc(C(N)=O)c3c2-c2sncc2CC3)cn1	2.5 mg/kg

----------
Biological target: Ephrin type-A receptor 3 (Homo sapiens, UniProt P29320)
Sequence (P29320 whole entry): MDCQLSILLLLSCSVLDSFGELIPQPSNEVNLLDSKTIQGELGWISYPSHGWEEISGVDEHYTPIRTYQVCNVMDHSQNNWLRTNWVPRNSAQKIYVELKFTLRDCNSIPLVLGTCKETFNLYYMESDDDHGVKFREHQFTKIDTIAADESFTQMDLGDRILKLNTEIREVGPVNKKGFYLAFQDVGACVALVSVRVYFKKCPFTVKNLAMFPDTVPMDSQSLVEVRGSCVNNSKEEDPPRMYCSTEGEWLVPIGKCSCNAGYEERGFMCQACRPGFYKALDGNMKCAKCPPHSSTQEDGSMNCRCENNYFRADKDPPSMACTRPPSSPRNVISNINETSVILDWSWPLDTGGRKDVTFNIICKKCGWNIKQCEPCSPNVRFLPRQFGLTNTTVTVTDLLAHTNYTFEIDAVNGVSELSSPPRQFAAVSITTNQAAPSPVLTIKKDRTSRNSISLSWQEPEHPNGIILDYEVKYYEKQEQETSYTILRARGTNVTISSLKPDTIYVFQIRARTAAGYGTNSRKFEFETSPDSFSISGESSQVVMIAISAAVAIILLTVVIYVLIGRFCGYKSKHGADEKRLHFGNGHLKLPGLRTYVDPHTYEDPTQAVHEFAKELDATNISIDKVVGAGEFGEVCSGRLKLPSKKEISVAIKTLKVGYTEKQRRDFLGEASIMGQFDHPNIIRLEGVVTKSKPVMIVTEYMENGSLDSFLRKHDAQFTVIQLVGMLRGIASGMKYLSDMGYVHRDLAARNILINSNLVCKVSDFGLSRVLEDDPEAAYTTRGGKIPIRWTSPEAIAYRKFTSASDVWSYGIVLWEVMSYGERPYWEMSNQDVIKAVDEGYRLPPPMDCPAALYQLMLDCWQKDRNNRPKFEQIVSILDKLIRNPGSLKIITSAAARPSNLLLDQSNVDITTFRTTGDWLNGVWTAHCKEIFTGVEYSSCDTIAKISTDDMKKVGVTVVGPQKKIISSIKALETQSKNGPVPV
pKd: −log10 of the molar value.
property_label: pKd

COCCNC(=O)c1ccc(Oc2sc(C(N)=O)c3c2-c2sncc2CC3)cn1	< 5.52

----------
test: Half life in ICR mouse plasma at 0.1 mg/kg, iv or 1 mg/kg, po administered as cassette dose by LC-MS/MS analysis; type: ADME, organism-based
property_label: half-life

COCCNC(=O)c1ccc(Oc2sc(C(N)=O)c3c2-c2sncc2CC3)cn1	2.1 h

----------
biological target: Cyclin-C/Cyclin-dependent kinase 19 (Homo sapiens, UniProt Q9BWU1); experiment: Inhibition of kinase tracer-236 binding to GST-tagged CDK19/CyclinC (unknown origin) after 60 mins by TR-FRET assay
Sequence (P24863 whole entry, one chain of several, further chain): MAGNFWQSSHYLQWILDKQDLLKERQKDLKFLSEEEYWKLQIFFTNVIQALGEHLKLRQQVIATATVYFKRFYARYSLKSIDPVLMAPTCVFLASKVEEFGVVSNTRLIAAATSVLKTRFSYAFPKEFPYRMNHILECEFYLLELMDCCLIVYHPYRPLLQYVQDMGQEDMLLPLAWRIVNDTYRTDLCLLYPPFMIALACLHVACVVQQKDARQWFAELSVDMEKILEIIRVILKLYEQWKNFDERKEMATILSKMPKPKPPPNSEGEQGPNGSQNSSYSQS
property_label: IC50

CSc1sc(C(N)=O)c2c1-c1sncc1CC2	1.3 to 1.7 nM
CC(C)(O)CNC(=O)c1ccc(Oc2sc(C(N)=O)c3c2-c2sncc2CC3)cn1	2.4 nM
NC(=O)c1sc(Oc2ccccn2)c2c1CCc1cnsc1-2	25 nM
CSc1sc(C(=O)N(C)C)c2c1-c1sncc1CC2	120 nM
CSc1sc(C(N)=O)c2c1-c1oncc1CC2	71 nM
NC(=O)c1sc(Oc2ccccc2)c2c1CCc1cnsc1-2	0.55 nM

----------
biological target: CDK8/Cyclin C (Homo sapiens, UniProt P49336); assay: Inhibition of kinase tracer-236 binding to GST-tagged CDK8/CyclinC (unknown origin) after 60 mins by TR-FRET assay; type: protein-complex assay
Sequence (P49336 whole entry): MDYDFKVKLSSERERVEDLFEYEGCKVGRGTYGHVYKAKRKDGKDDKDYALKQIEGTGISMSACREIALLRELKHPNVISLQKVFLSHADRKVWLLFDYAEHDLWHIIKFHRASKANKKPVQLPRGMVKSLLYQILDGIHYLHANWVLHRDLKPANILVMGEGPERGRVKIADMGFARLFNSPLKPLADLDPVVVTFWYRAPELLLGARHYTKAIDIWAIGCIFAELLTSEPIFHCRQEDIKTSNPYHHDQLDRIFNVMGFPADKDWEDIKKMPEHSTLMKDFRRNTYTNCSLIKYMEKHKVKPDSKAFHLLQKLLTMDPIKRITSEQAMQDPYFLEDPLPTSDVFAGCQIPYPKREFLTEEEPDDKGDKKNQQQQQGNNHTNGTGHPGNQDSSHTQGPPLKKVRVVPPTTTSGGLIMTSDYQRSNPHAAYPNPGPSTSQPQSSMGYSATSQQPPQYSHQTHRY
Sequence (P24863 whole entry, further chain): as the sequence (P24863 whole entry, one chain of several, further chain) above
Quick list: IC50 per entry.
property_label: IC50 (nM)

CNc1ccc(Oc2sc(C(N)=O)c3c2-c2sncc2CC3)cn1	0.59
CSc1sc(C(N)=O)c2c1-c1c(cnn1C)CC2	18
CSc1sc(C(=O)Nc2ccon2)c2c1-c1sncc1CC2	12
CC(=O)Nc1ccc(Oc2sc(C(N)=O)c3c2-c2sncc2CC3)cn1	0.57
CSc1sc(C(=O)Nc2ccn(C)n2)c2c1-c1sncc1CC2	22
Cc1ncccc1Oc1sc(C(N)=O)c2c1-c1sncc1CC2	0.47
CN(C)C(=O)c1ccc(Oc2sc(C(N)=O)c3c2-c2sncc2CC3)cn1	23
CS(=O)(=O)c1sc(C(N)=O)c2c1-c1sncc1CC2	63
COc1sc(C(N)=O)c2c1-c1sncc1CC2	2.3
CNC(=O)c1sc(SC)c2c1CCc1cnsc1-2	9.3
C[S+]([O-])c1sc(C(N)=O)c2c1-c1sncc1CC2 (stereo not drawn)	88
CSc1sc(C(=O)O)c2c1-c1sncc1CC2	9.5
